# method: Cytotoxicity against human A549 cells assessed as growth inhibition at 3 ug/ml after 48 hrs by MTT assay relative to control
# Assay type: cell-based
# measurementParameters: read-out: GI
Listed compounds paired with reported inhibition at 48 h, 3 ug/ml
# number only, unit % dropped from output

Param item = "COc1ccc2cc(/C=C3\CNC/C(=C\c4cc5ccc(OC)cc5nc4Cl)C3=O)c(Cl)nc2c1" ; retrieve measured inhibition at 48 h, 3 ug/ml. 3.8

# iterate: "O=C1/C(=C/c2cc3cc(Cl)ccc3nc2Cl)CNC/C1=C\c1cc2cc(Cl)ccc2nc1Cl" 2.3

# iterate: "Cc1ccc2nc(Cl)c(/C=C3\CNC/C(=C\c4cc5cc(C)ccc5nc4Cl)C3=O)cc2c1" -18.7

# iterate: "CN1C/C(=C\c2cc3ccccc3nc2Cl)C(=O)/C(=C/c2cc3ccccc3nc2Cl)C1" -14.6

# iterate: "O=C1/C(=C/c2cc3ccccc3nc2Cl)CNC/C1=C\c1cc2ccccc2nc1Cl" 0

# iterate: "Cc1ccc2cc(/C=C3\CNC/C(=C\c4cc5ccc(C)cc5nc4Cl)C3=O)c(Cl)nc2c1" 5.4

# iterate: "CN1C/C(=C\c2cc3cc(F)ccc3nc2Cl)C(=O)/C(=C/c2cc3cc(F)ccc3nc2Cl)C1" 0

# iterate: "Cc1cccc2cc(/C=C3\CNC/C(=C\c4cc5cccc(C)c5nc4Cl)C3=O)c(Cl)nc12" 0

# iterate: "O=C1/C(=C/c2cc3cc(F)ccc3nc2Cl)CNC/C1=C\c1cc2cc(F)ccc2nc1Cl" -5.8

# iterate: "COc1ccc2nc(Cl)c(/C=C3\CN(C)C/C(=C\c4cc5cc(OC)ccc5nc4Cl)C3=O)cc2c1" 0

# iterate: "Cc1ccc2cc(/C=C3\CN(C)C/C(=C\c4cc5ccc(C)cc5nc4Cl)C3=O)c(Cl)nc2c1" 30.2

# iterate: "Cc1cccc2cc(/C=C3\CN(C)C/C(=C\c4cc5cccc(C)c5nc4Cl)C3=O)c(Cl)nc12" -11

* * *

Listed molecules paired with reported inhibition at 48 h, 10 ug/ml
# method: Cytotoxicity against human MCF7 cells assessed as growth inhibition at 10 ug/ml after 48 hrs by MTT assay relative to control
# Assay type: cell-based
# measurementParameters: read-out: GI
# number only, unit % dropped from output

| moleculeSmiles | unitsText | inhibition at 48 h, 10 ug/ml |
| --- | --- | --- |
| O=C1/C(=C/c2cc3cc(Cl)ccc3nc2Cl)CNC/C1=C\c1cc2cc(Cl)ccc2nc1Cl | % | 22.8 |
| O=C1/C(=C/c2cc3cc(F)ccc3nc2Cl)CNC/C1=C\c1cc2cc(F)ccc2nc1Cl | % | 41.1 |
| Cc1ccc2cc(/C=C3\CNC/C(=C\c4cc5ccc(C)cc5nc4Cl)C3=O)c(Cl)nc2c1 | % | 10.1 |
| COc1ccc2nc(Cl)c(/C=C3\CN(C)C/C(=C\c4cc5cc(OC)ccc5nc4Cl)C3=O)cc2c1 | % | -7.4 |
| CN1C/C(=C\c2cc3ccccc3nc2Cl)C(=O)/C(=C/c2cc3ccccc3nc2Cl)C1 | % | 24.3 |
| Cc1ccc2nc(Cl)c(/C=C3\CNC/C(=C\c4cc5cc(C)ccc5nc4Cl)C3=O)cc2c1 | % | 17.7 |
| COc1ccc2cc(/C=C3\CNC/C(=C\c4cc5ccc(OC)cc5nc4Cl)C3=O)c(Cl)nc2c1 | % | 52.1 |
| O=C1/C(=C/c2cc3ccccc3nc2Cl)CNC/C1=C\c1cc2ccccc2nc1Cl | % | 23.2 |

Continue with the next molecule.
Param item = "Cc1ccc2cc(/C=C3\CN(C)C/C(=C\c4cc5ccc(C)cc5nc4Cl)C3=O)c(Cl)nc2c1" ; retrieve measured inhibition at 48 h, 10 ug/ml. 52
